assay: ACEA_ER_AUC_viability: ACEA Biosciences xCELLigence Real-Time Cell Analysis on Estrogen Receptor Agonism for Viability (AID 2283782);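 also: continuous compound exposure with impedance area under curve over 80 h; hit means loss of impedance signal meaning reduced cell growth or viability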
Records with an inconclusive call do not appear. Calls of active or inactive are those of the source. The calls were made as follows: active = hit-call score of the fitted dose curve at least 0.9, where 1 is the maximum; inconclusive = response in the unintended direction; inactive = score below 0.9.
Outcome codes: yes (1) = active, no (0) = inactive

>  <compound>
CC(=O)C=CC1=C(C)CCCC1(C)C

>  <answer_label>
no (0)

$$$$
>  <compound>
CN(C)CCOCCN(C)C

>  <answer_label>
no (0)

$$$$
>  <compound>
CCCCCCCCCCCCCCCC(=O)OC[C@H](O)[C@H]1OC(=O)C(O)=C1O

>  <answer_label>
yes (1)

$$$$
>  <compound>
CC(C)C1CCC(O)CC1 (stereo not drawn)

>  <answer_label>
no (0)

$$$$
>  <compound>
Cc1ccc(S)cc1

>  <answer_label>
no (0)

$$$$
>  <compound>
C=CC(C)(O)CCC=C(C)CCC=C(C)C (stereo not drawn)

>  <answer_label>
yes (1)

$$$$
>  <compound>
C=CC(=O)NCOCC(C)C

>  <answer_label>
no (0)

$$$$
>  <compound>
O=C(O)c1ccc(C(=O)O)cc1

>  <answer_label>
no (0)

$$$$
>  <compound>
O=C1c2ccccc2C(=O)N1SC1CCCCC1

>  <answer_label>
yes (1)

$$$$
>  <compound>
CC(CN1c2ccccc2Sc2ccccc21)N(C)C (stereo not drawn)

>  <answer_label>
yes (1)

$$$$
>  <compound>
CC(CC(C)(C)C)CC(C)(C)CC(C)(C)C (stereo not drawn)

>  <answer_label>
no (0)

$$$$
>  <compound>
O=c1oc(=O)c2cc3c(=O)oc(=O)c3cc12

>  <answer_label>
no (0)

$$$$
>  <compound>
COc1ccc(NC(=O)CC(C)=O)cc1

>  <answer_label>
no (0)

$$$$
>  <compound>
[Ca+2]

>  <answer_label>
no (0)

$$$$
>  <compound>
CCCCO

>  <answer_label>
yes (1)

$$$$
>  <compound>
CO[Si](CCCn1c(=O)n(CCC[Si](OC)(OC)OC)c(=O)n(CCC[Si](OC)(OC)OC)c1=O)(OC)OC

>  <answer_label>
yes (1)

$$$$
>  <compound>
c1ccc2sc(SN(C3CCCCC3)C3CCCCC3)nc2c1

>  <answer_label>
yes (1)

$$$$
>  <compound>
O=C[C@@H](O)[C@H](O)[C@H](O)CO

>  <answer_label>
no (0)

$$$$
>  <compound>
CCCC/C=C\CCCCCCCCCC=O

>  <answer_label>
yes (1)

$$$$
>  <compound>
CC1(C)[C@H]2CC[C@]1(C)[C@H](O)C2

>  <answer_label>
no (0)

$$$$
>  <compound>
CN(C)C(=N)N=C(N)N

>  <answer_label>
no (0)

$$$$
>  <compound>
CCCCCCCCC

>  <answer_label>
no (0)

$$$$
>  <compound>
CC(=O)Nc1ccc(C)cc1C

>  <answer_label>
no (0)

$$$$
>  <compound>
CNC[C@H](O)c1cccc(O)c1

>  <answer_label>
yes (1)

$$$$
>  <compound>
COc1cccc(OC)c1

>  <answer_label>
no (0)

$$$$
>  <compound>
Fc1c(F)c(F)c(Br)c(F)c1F

>  <answer_label>
no (0)

$$$$
>  <compound>
O=C1CCCCCCCCCCCCCCO1

>  <answer_label>
no (0)

$$$$
>  <compound>
O=Nc1ccc(Nc2ccccc2)cc1

>  <answer_label>
yes (1)

$$$$

---

target: human Phosphodiesterase 10 (PDE10), PDE10A (gene 10846) (UniProt Q9Y233); test: NVS_ENZ_hPDE10: NovaScreen (NVS) Enzymatic Assay for human Phosphodiesterase 10 (PDE10) (AID 2283195)
Sequence (Q9Y233 whole entry, looked up): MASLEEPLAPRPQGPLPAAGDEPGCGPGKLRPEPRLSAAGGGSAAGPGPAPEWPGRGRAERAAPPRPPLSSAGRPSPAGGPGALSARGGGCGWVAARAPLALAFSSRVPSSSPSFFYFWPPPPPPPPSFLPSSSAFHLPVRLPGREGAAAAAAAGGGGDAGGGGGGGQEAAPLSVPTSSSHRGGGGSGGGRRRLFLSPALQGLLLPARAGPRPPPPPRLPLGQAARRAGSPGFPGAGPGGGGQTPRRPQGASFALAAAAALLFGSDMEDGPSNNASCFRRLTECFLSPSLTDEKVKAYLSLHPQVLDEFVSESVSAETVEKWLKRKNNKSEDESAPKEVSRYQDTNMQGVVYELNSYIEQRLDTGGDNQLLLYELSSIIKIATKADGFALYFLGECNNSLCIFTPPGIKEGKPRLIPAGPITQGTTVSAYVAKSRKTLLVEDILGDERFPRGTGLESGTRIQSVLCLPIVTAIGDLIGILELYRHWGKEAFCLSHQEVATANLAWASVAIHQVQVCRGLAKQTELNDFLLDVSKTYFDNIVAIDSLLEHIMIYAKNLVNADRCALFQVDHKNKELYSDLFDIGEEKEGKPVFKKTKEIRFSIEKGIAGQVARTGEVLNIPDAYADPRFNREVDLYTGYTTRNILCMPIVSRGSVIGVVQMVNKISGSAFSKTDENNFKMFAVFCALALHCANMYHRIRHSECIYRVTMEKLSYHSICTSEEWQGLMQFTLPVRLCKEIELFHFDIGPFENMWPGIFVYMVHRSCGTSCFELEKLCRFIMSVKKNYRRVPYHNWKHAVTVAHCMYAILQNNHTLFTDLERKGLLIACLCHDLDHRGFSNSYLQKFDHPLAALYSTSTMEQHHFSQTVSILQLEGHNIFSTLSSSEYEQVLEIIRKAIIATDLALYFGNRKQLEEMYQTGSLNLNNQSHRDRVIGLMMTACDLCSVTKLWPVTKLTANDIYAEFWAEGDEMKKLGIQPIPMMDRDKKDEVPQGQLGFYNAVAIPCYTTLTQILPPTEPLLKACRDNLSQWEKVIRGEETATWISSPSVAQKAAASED
Results filed as inconclusive are left out. Active and inactive are the calls of the source. Rule for the calls: active = hit-call score of the fitted dose curve at least 0.9, where 1 is the maximum; inconclusive = response in the unintended direction; inactive = score below 0.9.
Outcome codes: true for active, false for inactive

>  <compound>
OCC(CO)(CO)COCC(CO)(CO)CO

>  <answer_label>
true

$$$$
>  <compound>
CCCCC(CC)COCCC#N (stereo unspecified)

>  <answer_label>
false

$$$$
>  <compound>
O=C=NC1CCC(CC2CCC(N=C=O)CC2)CC1 (stereo unspecified)

>  <answer_label>
false

$$$$
>  <compound>
COc1cc2ncnc(Nc3cccc(Cl)c3)c2cc1OC

>  <answer_label>
true

$$$$
>  <compound>
C#C[C@]1(O)CC[C@H]2[C@@H]3CCC4=Cc5oncc5C[C@]4(C)[C@H]3CC[C@@]21C

>  <answer_label>
false

$$$$
>  <compound>
O=[N+]([O-])c1cc(C(F)(F)F)ccc1Cl

>  <answer_label>
true

$$$$
>  <compound>
Cc1c(Cl)c(=O)oc2cc(O)ccc12

>  <answer_label>
true

$$$$
>  <compound>
Nc1cc([N+](=O)[O-])ccc1Cl

>  <answer_label>
false

$$$$
>  <compound>
COC(=O)OC

>  <answer_label>
false

$$$$
>  <compound>
CCCCC/C=C/C=C/C=O

>  <answer_label>
false

$$$$
>  <compound>
CC(=O)OCc1ccc2c(c1)OCO2

>  <answer_label>
false

$$$$

---

read-out: Interleukin-8 (IL8), CXCL8 (gene 3576); assay: BSK_SAg_IL8: BioMAP Diversity Plus: SAg Assay for Interleukin-8 (IL8) Biomarker Activity (AID 2283094); conditions: primary human HUVEC with PBMC; actives raise or lower the signal
Active and inactive are the calls of the source. The calls were made as follows: active = hit-call score of the fitted dose curve at least 0.9, where 1 is the maximum; inactive = score below 0.9.
Possible outcomes: active, inactive

>  <compound>
CC(C)(COC(=O)c1ccccc1)COC(=O)c1ccccc1

>  <answer_label>
inactive

$$$$
>  <compound>
CNC[C@H](O)c1cccc(O)c1

>  <answer_label>
inactive

$$$$
>  <compound>
CC(=O)O[C@]1(C(C)=O)CC[C@H]2[C@@H]3C[C@H](C)C4=CC(=O)CC[C@]4(C)[C@H]3CC[C@@]21C

>  <answer_label>
inactive

$$$$
>  <compound>
Cc1cc(C2(c3cc(C)c(O)cc3C)OS(=O)(=O)c3ccccc32)c(C)cc1O

>  <answer_label>
inactive

$$$$
>  <compound>
CC(C)c1ccc(C(C)C)cc1

>  <answer_label>
inactive

$$$$
>  <compound>
O=[N+]([O-])c1cc(C(F)(F)F)ccc1Cl

>  <answer_label>
inactive

$$$$
>  <compound>
BrC1CCC(Br)C(Br)CCC(Br)C(Br)CCC1Br (configuration not stated)

>  <answer_label>
inactive

$$$$
>  <compound>
CC(C)Oc1ccccc1O

>  <answer_label>
inactive

$$$$
>  <compound>
Cc1ccc(O)c(C(C)(C)C)c1

>  <answer_label>
active

$$$$
>  <compound>
C=CCOC(=O)CCC1CCCCC1

>  <answer_label>
inactive

$$$$
>  <compound>
CC[Si](OC(C)=O)(OC(C)=O)OC(C)=O

>  <answer_label>
inactive

$$$$
>  <compound>
O=C(O)c1cn(C2CC2)c2cc(N3CCNCC3)c(F)cc2c1=O

>  <answer_label>
inactive

$$$$

---

Target: bovine Estrogen Receptor (ER), ESR1 (gene 407238) (UniProt P49884)
Sequence (P49884 whole entry, looked up): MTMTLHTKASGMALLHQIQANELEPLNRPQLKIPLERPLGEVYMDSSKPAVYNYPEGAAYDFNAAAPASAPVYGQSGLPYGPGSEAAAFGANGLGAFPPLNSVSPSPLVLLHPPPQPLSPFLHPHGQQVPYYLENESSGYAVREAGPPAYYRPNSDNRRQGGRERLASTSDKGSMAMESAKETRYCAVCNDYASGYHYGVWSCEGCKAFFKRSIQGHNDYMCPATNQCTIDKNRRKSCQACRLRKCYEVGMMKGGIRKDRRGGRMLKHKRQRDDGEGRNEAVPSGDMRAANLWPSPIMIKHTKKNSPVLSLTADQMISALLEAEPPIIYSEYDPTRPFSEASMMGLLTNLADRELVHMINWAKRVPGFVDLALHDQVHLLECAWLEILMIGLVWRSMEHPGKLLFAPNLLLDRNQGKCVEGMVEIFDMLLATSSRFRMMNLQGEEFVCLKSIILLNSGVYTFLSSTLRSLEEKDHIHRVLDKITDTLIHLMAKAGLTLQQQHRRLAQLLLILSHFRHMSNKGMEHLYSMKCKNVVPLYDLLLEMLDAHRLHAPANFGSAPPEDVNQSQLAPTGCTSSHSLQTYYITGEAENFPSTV
Assay: NVS_NR_bER: NovaScreen (NVS) Nuclear Receptor Binding Assay for bovine Estrogen Receptor (ER) (AID 2283345);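 also: actives lower the bound radioligand count which means they displace the ER ligand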
Description: NVS_NR_bER is a biochemical, single-readout assay that uses extracted gene-proteins from Bovine uterine membranes in a tissue-based cell-free assay. Measurements were taken 18 hours after chemical dosing in a 96-well plate.NVS_NR_bER is one of one assay component(s) measured or calculated from the NVS_NR_bER assay. […] This assay endpoint, NVS_NR_bER, was analyzed in the positive analysis fitting direction relative to DMSO as the negative control and baseline of activity. […]
Inconclusive results are not listed. Activity calls are given as the source filed them. The calls were made as follows: active = hit-call score of the fitted dose curve at least 0.9, where 1 is the maximum; inconclusive = response in the unintended direction; inactive = score below 0.9.
Outcomes: active, inactive

>  <molecule>
CC(C)(C)C(=O)c1ccccc1

>  <answer_label>
inactive

$$$$
>  <molecule>
CC(=O)[C@H]1CC[C@H]2[C@@H]3CC=C4C[C@@H](O)CC[C@]4(C)[C@H]3CC[C@]12C

>  <answer_label>
inactive

$$$$
>  <molecule>
CCCCCCCCC=O

>  <answer_label>
inactive

$$$$
>  <molecule>
O=Nc1ccc(Nc2ccccc2)cc1

>  <answer_label>
inactive

$$$$
>  <molecule>
C=CC(=O)OCC(O)COc1ccccc1 (stereo unspecified)

>  <answer_label>
inactive

$$$$
>  <molecule>
CC1COc2ccccc2N1C(=O)C(Cl)Cl (stereo unspecified)

>  <answer_label>
active

$$$$

---

experiment: BSK_SAg_Proliferation: Cell Proliferation Assessment in the BioMAP Diversity Plus: SAg Assay (AID 2283095); conditions: primary human HUVEC with PBMC;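 also: relative cell number as total protein by SRB absorbance in sub-confluent culture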
Activity calls are given as the source filed them. The calls were made as follows: active = hit-call score of the fitted dose curve at least 0.9, where 1 is the maximum; inactive = score below 0.9.
Labels: active, inactive

>  <compound>
CCCCCCCCCCCCCCCCCC(=O)OCC(CC)CCCC (centres undefined)

>  <answer_label>
inactive

$$$$
>  <compound>
O=C(O)c1ccc([N+](=O)[O-])cc1

>  <answer_label>
inactive

$$$$
>  <compound>
O=C1CCCCCCCCCCCCCCO1

>  <answer_label>
active

$$$$
>  <compound>
C#C[C@]1(O)CC[C@H]2[C@@H]3CCC4=Cc5oncc5C[C@]4(C)[C@H]3CC[C@@]21C

>  <answer_label>
inactive

$$$$
>  <compound>
Cc1ccc2n[nH]nc2c1

>  <answer_label>
inactive

$$$$
>  <compound>
CC(=O)/C=C/C1=C(C)CCCC1(C)C

>  <answer_label>
inactive

$$$$
>  <compound>
C=C(C)C(=O)O[C@H]1C[C@@H]2CC[C@@]1(C)C2(C)C

>  <answer_label>
active

$$$$
>  <compound>
CCCCC(CC)COCCC#N (centres undefined)

>  <answer_label>
inactive

$$$$
>  <compound>
CC(C)c1ccc(C(C)C)cc1

>  <answer_label>
inactive

$$$$
>  <compound>
C=CCOC(=O)CCC1CCCCC1

>  <answer_label>
inactive

$$$$
>  <compound>
c1ccc2sc(SN(C3CCCCC3)C3CCCCC3)nc2c1

>  <answer_label>
active

$$$$
>  <compound>
CCCCC/C=C/C=C/C=O

>  <answer_label>
active

$$$$
>  <compound>
N#Cc1ccc(CC(=NNC(=O)Nc2ccc(OC(F)(F)F)cc2)c2cccc(C(F)(F)F)c2)cc1

>  <answer_label>
inactive

$$$$
>  <compound>
OC[C@H]1O[C@H](O[C@]2(CCl)O[C@H](CCl)[C@@H](O)[C@@H]2O)[C@H](O)[C@@H](O)[C@H]1Cl

>  <answer_label>
inactive

$$$$
>  <compound>
CCC(=O)OCc1ccccc1

>  <answer_label>
inactive

$$$$
>  <compound>
CNC[C@H](O)c1cccc(O)c1

>  <answer_label>
inactive

$$$$
>  <compound>
CC(=O)O[C@]1(C(C)=O)CC[C@H]2[C@@H]3C[C@H](C)C4=CC(=O)CC[C@]4(C)[C@H]3CC[C@@]21C

>  <answer_label>
inactive

$$$$
>  <compound>
O=P(c1ccccc1)(c1ccccc1)c1ccccc1

>  <answer_label>
inactive

$$$$
>  <compound>
CC(=O)Nc1ccccc1O

>  <answer_label>
inactive

$$$$
>  <compound>
BrC1CCC(Br)C(Br)CCC(Br)C(Br)CCC1Br (centres undefined)

>  <answer_label>
active

$$$$
>  <compound>
CCCCCCCCCC=O

>  <answer_label>
inactive

$$$$
>  <compound>
Cc1ccc(O)c(C(C)(C)C)c1

>  <answer_label>
active

$$$$
>  <compound>
CC1COc2ccccc2N1C(=O)C(Cl)Cl (centres undefined)

>  <answer_label>
inactive

$$$$
>  <compound>
OC1OC[C@@H](O)[C@H](O)[C@H]1O (some centres undefined)

>  <answer_label>
inactive

$$$$
>  <compound>
CC1CCC(C(C)CS)CC1S (centres undefined)

>  <answer_label>
inactive

$$$$
>  <compound>
C=C[Si](OCC)(OCC)OCC

>  <answer_label>
inactive

$$$$
>  <compound>
CC(C)(COC(=O)c1ccccc1)COC(=O)c1ccccc1

>  <answer_label>
active

$$$$
>  <compound>
O=C=NC1CCC(CC2CCC(N=C=O)CC2)CC1 (centres undefined)

>  <answer_label>
active

$$$$
>  <compound>
O=C1OC2(c3cc(Br)c(O)c(Br)c3Oc3c2cc(Br)c(O)c3Br)c2c(Cl)c(Cl)c(Cl)c(Cl)c21

>  <answer_label>
active

$$$$
